Value source: patent US20260091026A1

- Assay Target: RIPK2 (KD)/XIAP (BIR2) (Homo sapiens)
- Sequence (O43353 1-310): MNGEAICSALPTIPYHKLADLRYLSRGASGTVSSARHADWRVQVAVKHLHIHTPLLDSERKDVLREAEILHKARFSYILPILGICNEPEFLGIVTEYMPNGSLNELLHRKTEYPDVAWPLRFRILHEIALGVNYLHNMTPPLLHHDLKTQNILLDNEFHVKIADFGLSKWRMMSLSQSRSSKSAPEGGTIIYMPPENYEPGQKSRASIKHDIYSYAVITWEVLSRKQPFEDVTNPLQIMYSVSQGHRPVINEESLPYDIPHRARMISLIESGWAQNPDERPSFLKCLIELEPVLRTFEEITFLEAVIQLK
- Experiment Summary: RIPK2-XIAP binding competition PPI assay (TR-FRET)
- Experimental Parameters: GST-RIPK2 / His-XIAP (BIR2)-avi, 120 min at 23° C.

- Compound: "COc1cc2ncc(-c3cc(C(=O)NCc4c5ccccc5nn4C)n(C)n3)n2cc1S(=O)(=O)C(C)(C)C [Example 16]"
  IC50: "> 1000 nM"
- Compound: "COc1cc2ncc(-c3cc(C(=O)NCc4cn(C)cn4)n(C)n3)n2cc1S(=O)(=O)C(C)(C)C [Example 44]"
  IC50: "100 to 1000 nM"
- Compound: "COc1ccccc1CNC(=O)c1cc(-c2cnc3cc(OC)c(S(=O)(=O)C(C)(C)C)cn23)nn1C [Example 73]"
  IC50: "10 to 100 nM"
- Compound: "COc1cc2ncc(-c3cc(C(=O)NCc4nccc(C)n4)n(C)n3)n2cc1S(=O)(=O)C(C)(C)C [Example 79]"
  IC50: "100 to 1000 nM"
- Compound: "COc1cc2ncc(-n3cc(NC(=O)OC(C)(C)C)cn3)n2cc1SC(C)(C)C [Example 153]"
  IC50: "> 1000 nM"
- Compound: "COc1cc2ncc(-c3cc(C(=O)N[C@@H](c4ccccn4)C(F)(F)F)n(C)n3)n2cc1S(=O)(=O)C(C)(C)C [Example 62]"
  IC50: "100 to 1000 nM"
- Compound: "COc1cc2ncc(-c3cc(C(=O)NC4CCCCC4)n(C)n3)n2cc1S(=O)(=O)C(C)(C)C [Example 6]"
  IC50: "> 1000 nM"
- Compound: "COc1cc2ncc(-c3cc(C(=O)NCC4CCC4)n(C)n3)n2cc1S(=O)(=O)C(C)(C)C [Example 39]"
  IC50: "100 to 1000 nM"
- Compound: "COc1cn2ncc(-c3cc(C(=O)N[C@H](C)c4ncccc4F)n(C)n3)c2cc1S(=O)(=O)C(C)(C)C [Example 114]"
  IC50: "10 to 100 nM"
- Compound: "COc1cc2ncc(-c3cc(C(=O)NCc4cccn5ccnc45)n(C)n3)n2cc1S(=O)(=O)C(C)(C)C [Example 21]"
  IC50: "100 to 1000 nM"
- Compound: "COc1cc2ncc(-c3cc(C(=O)N[C@@H]4C[C@H]4c4ccccc4)n(C)n3)n2cc1S(=O)(=O)C(C)(C)C (single isomer, unassigned) [Example 33]"
  IC50: "100 to 1000 nM"
- Compound: "CCn1nc(-c2cnc3cc(OC)c(S(=O)(=O)C(C)(C)C)cn23)cc1C(=O)NCc1ncccn1 [Example 80]"
  IC50: "10 to 100 nM"
- Compound: "COc1cc2ncnc(-c3cc(C(=O)N[C@H](C)c4ccccc4)n(C)n3)c2cc1S(=O)(=O)C(C)(C)C [Example 192]"
  IC50: "10 to 100 nM"
- Compound: "CCn1nc(-c2cnc3cc(OCCO)c(S(=O)(=O)C(C)(C)C)cn23)cc1C(=O)N[C@H](C)c1ccccn1 [Example 121]"
  IC50: "< 10 nM"
- Compound: "COc1cc2ncc(-c3cc(C(=O)NCc4cnccn4)n(C)n3)n2cc1S(=O)(=O)C(C)(C)C [Example 67]"
  IC50: "> 1000 nM"
